Assay: chemical genetic growth profiling, strain panel (AID 1159580);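 further: tested at 20 µM; growth read once vehicle control cultures reached saturation at 30 °C; lower values mean less growth of the strain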
Settings: S. cerevisiae deletion strains, growth OD, locus YDR195W, strain ref2
Among all 5,500 compounds or so, about 2,000 (36%) were called active. Not shown: some 18% with an inconclusive outcome. No stated cut-off is given here; in the data, active means normalized growth mostly below about 0.91 (no sharp cut-off); inconclusive means no clear call, values can overlap the other calls; inactive means mostly above about 0.92. The list shows a part of the results.
Classes used: active, inactive

INSERT INTO measurements (molecule, answer_label) VALUES
  ('O=C(OC1Cc2c(O)cc(O)cc2OC1c1cc(O)c(O)c(O)c1-c1c(C2Oc3cc(O)cc(O)c3CC2OC(=O)c2cc(O)c(O)c(O)c2)cc(O)c(O)c1O)c1cc(O)c(O)c(O)c1 (stereo not drawn)', 'inactive'),
  ('CN/C(=C\[N+](=O)[O-])NCCSCc1ccc(CN(C)C)o1', 'inactive'),
  ('CC1(C)CCCC2(C)C3C1[C@@H](O)C2(C)C[C@H]3O (stereo partly drawn)', 'inactive'),
  ('O=C(O[C@@H]1Cc2c(O)cc(O)cc2O[C@@H]1c1cc(O)c(O)c(O)c1-c1c([C@H]2Oc3cc(O)cc(O)c3C[C@H]2O)cc(O)c(O)c1O)c1cc(O)c(O)c(O)c1', 'inactive'),
  ('NCC(O)c1ccc(O)cc1 (stereo not drawn)', 'inactive'),
  ('CC(=O)O[C@H]1C[C@@H](OC(C)=O)C(C)(C)C2C[C@@H](OC(C)=O)[C@@]3(C)C4=CC(=O)O[C@@H](c5ccoc5)[C@]4(C)CCC3[C@]21C (stereo partly drawn)', 'inactive'),
  ('CS(=O)(=O)CCCCN=C=S', 'active'),
  ('COC(C)(C)CCC[C@H](C)C/C=C/C(C)=C/C(=O)OC(C)C', 'inactive');
